// values below are reported pEC50
# target_entity: hM5 (human Muscarinic receptor subtype 5) (Homo sapiens, UniProt P08912)
# Construct: expressed in transfected cells; host or cells: CHO cells (Chinese hamster ovary cells, ATCC)
# Sequence (P08912 1-532): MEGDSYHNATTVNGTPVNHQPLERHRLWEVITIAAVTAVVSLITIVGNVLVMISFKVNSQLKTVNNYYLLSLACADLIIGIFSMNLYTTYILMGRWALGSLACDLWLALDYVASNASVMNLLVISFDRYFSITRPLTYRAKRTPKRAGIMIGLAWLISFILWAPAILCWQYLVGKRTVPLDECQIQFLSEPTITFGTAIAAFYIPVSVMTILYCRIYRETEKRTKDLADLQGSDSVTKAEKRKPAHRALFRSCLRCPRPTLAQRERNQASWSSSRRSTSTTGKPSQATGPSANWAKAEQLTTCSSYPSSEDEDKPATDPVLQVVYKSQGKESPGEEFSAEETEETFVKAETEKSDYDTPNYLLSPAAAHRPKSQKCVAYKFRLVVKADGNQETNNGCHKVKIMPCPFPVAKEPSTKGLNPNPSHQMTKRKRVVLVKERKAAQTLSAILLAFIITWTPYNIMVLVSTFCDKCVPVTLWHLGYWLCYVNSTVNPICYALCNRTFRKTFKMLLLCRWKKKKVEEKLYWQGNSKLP
# assay_text: Human M5 calcium mobilization FLIPR assay
# Assay type: cell-based
# condition_notes: hM5 expressed in CHO cells, intracellular Ca2+ release, read-out: hM5 EC50
pEC50: −log10 of the molar value.

Worked set:
| molecule | pEC50 |
| --- | --- |
| COC(=O)N1CCC(C)(N2CCC(N3C(=O)Cc4ccc(C)cc43)CC2)C1 (single isomer, unassigned) [Example 67] | < 5.17 |
| CC1(N2CCC(n3c(=O)[nH]c4cc(F)ccc43)CC2)CCN(C(=O)OCCF)C1 (single isomer, unassigned) [Example 24] | 5.80 |
| COC(=O)N1CCC(C)(N2CCC(N3C(=O)Cc4ccc(C)cc43)CC2)C1 (single isomer, unassigned) [Example 68] | < 5.39 |

Recorded result, CCOC(=O)N1CCC(C)(N2CCC(n3c(=O)[nH]c4cc(F)ccc43)CC2)C1 (single isomer, unassigned) [Example 7] , pEC50: 5.51

Lookup result for CCOC(=O)N1CCC(C)(N2CCC(N3C(=O)Cc4ccccc43)CC2)C1 (single isomer, unassigned) [Example 72] ; measured pEC50: < 4.40

The molecule listed as C#CCOC(=O)N1CCC(C)(N2CCC(n3c(=O)[nH]c4ccc(C)cc43)CC2)C1 (single isomer, unassigned) [Example 41] has a reported pEC50 of < 4.40
